assayed target: sirtuin protein (Homo sapiens)
Sequence (Q96EB6 2-747 limits assumed): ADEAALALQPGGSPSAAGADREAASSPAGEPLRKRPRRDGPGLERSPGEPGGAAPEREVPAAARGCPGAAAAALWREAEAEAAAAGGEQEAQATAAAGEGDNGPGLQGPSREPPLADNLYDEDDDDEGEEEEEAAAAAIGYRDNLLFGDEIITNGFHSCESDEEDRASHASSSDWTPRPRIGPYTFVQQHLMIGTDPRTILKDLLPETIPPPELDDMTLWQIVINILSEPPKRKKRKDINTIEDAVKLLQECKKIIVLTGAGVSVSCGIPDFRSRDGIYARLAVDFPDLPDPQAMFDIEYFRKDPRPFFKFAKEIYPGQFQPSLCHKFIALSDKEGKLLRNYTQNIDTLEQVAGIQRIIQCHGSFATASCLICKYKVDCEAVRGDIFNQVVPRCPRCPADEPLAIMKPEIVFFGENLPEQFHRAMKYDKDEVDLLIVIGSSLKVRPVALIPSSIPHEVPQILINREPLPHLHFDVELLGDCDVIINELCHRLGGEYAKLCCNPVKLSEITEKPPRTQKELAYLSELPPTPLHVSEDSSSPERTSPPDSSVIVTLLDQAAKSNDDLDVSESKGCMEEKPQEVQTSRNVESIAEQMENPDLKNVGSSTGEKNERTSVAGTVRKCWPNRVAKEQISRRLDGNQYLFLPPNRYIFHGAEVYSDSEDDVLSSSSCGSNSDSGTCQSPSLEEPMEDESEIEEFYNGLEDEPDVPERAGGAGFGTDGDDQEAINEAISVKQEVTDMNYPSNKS
assay explanation: MS assay (IC50 MS ASSAY / ED50 MS / FOLD ACTIVATION MS)
Format: biochemical
Set-up: scale not given here
study conditions: class symbols (A′, A, B, D, NA), no legend given
readout name: ED50 MS ASSAY

Study these solved cases before continuing.
[
  {
    "compound": "COc1cccc(C(=O)Nc2ccccc2-c2nc3cccnc3[nH]2)c1C [Compound 530]",
    "readout name": "ED50 MS ASSAY",
    "result value": "A′"
  },
  {
    "compound": "O=C(Nc1ccccc1-c1nc2cccnc2[nH]1)c1ccccc1 [Compound 533]",
    "readout name": "ED50 MS ASSAY",
    "result value": "A′"
  },
  {
    "compound": "O=C(Nc1ncccc1-c1cn2c(CN3CCOCC3)csc2n1)c1cnc2ccccc2n1 [Compound 621]",
    "readout name": "ED50 MS ASSAY",
    "result value": "A′"
  },
  {
    "compound": "COc1ccc(C(=O)Nc2ccc(-c3nc4cnccc4s3)s2)c(OC)c1 [Compound 515]",
    "readout name": "ED50 MS ASSAY",
    "result value": "A′"
  }
]

With those in mind, consider the next compound.
Record summary for O=C(Nc1ccccc1-c1cn2c(CO)csc2n1)c1cnc2ccccc2n1 [Compound 648] : reported ED50 MS ASSAY = A′

These data points were gathered from patent US20100168084A1.
